What EC50 was measured for each of the following?
TARGET_DESC: T1, Human recombinant CD5L protein (Sino Biological, Catalog Number 10791-H08H) (human, UniProt O43866 20-347)
T1 construct: Bought protein; also called human CD5L; CD5L-His; not shown: 6xHIS-tag
T1 sequence (looked up): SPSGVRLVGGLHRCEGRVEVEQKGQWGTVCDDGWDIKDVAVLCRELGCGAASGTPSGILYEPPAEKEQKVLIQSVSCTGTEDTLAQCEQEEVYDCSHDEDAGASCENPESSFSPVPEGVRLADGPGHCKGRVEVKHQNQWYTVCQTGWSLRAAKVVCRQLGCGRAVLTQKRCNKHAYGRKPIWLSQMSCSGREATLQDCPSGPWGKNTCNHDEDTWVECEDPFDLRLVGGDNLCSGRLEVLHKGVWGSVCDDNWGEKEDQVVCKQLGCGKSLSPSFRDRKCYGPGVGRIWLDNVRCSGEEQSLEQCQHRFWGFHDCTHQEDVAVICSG
PROTOCOL: titration ELISA, human CD5L coated on plate
One number for each entry, in µg/mL.

In the examples that follow, each entry is paired with its recorded EC50.
R-36 (antibody, V domains shown) VH: QSVKESGGGLFQPGGSLALTCKASGFSLSKNYVMCWVRQAPGKGLEWIACIYAGDGNTYYVSWAKGRFTISKTSSTTVTLQMTSLTAADTATYFCARWDYIGNNNLWGPGTLVTISS VL: ELVLTQTPASVEAAVGGTVTIKCQASQTISSYLAWYQQKPGQPPKLLIYRASTLASGVPSRFKGSGSGTQFTLTISDLECADGATYYCQCPYYGSSHVGAFGGGTEVVVK; 0.278
R-29 (antibody, V domains shown) VH: QSVEESGGRLVTPGTPLTLTCTVSGFSLSSYAMNWVRQAPGKGLEWIGLIYASGTTHYASWVNGRFTISKTSTTVTLKMTSLTAADTATYFCARDSYSTGNLWGQGTLVTISS VL: ELVLTQTPASVSEPVGGTVTIKCQASQSIYSSLVWYQQKPGQPPKLLIYGASNLESGVPSRFKGSGSGTEYTLTISGVQCADAATYYCQCSGYNSRVFGGGTEVEIK; 0.161

(Q) Form field: reported EC50 of R-18 (antibody, V domains shown) VH: QSVKESGGRLVTPGTPLTLTCTVSGFSLSNYAMSWVRQAPGKGLEWIGIIVTSGSTYYASWAKGRFTISKTSTTVDLKMTSLTAADTATYFCARHAYSIGSSLWGQGTLVTISS VL: ELDLTQTPPSASEPVGGTVTIKCQASESISVRLAWYQQKPGQPPKLLIYKASNLPSGVPSRFKGSGSGTEFTLTISDLECDDAATYYCRNYYDISNNGAGFGGGTEVEIK
(A) 0.19

Reference source for all entries: patent US20240383999A1
